Listing of entries alongside the reported AUC(0-inf).
- MEASUREMENT_DESCRIPTION: Pharmacokinetic assay in Balb/c mice (plasma and brain tissue)
- Type: in vivo
- RUN_PARAMETERS: mouse, po; brain tissue, 5 mg/kg p.o., male Balb/c mice; read-out: Area under curve AUC0-∞
QUANTITY_KIND: AUC(0-inf) (µg·h/mL)

INSERT INTO assay_data (molecule, quantity_kind, endpoint_unit, quantitative_result) VALUES
  ('C[C@@]1(O)CC[C@H]2[C@H](CC[C@@H]3[C@@H]2CC[C@@]2(C)[C@H]3[C@H](C3CC3)C[C@@H]2C(=O)Cn2nccn2)C1 [Example 73]', 'AUC(0-inf)', 'µg·h/mL', 1.12),
  ('C[C@@]1(O)CC[C@H]2[C@H](CC[C@@H]3[C@@H]2CC[C@@]2(C)[C@H]3[C@H](C3CC3)C[C@@H]2C(=O)Cn2ncnn2)C1 [Example 146]', 'AUC(0-inf)', 'µg·h/mL', 12.5),
  ('CC[C@@H]1C[C@H](C(=O)Cn2ccc(C#N)n2)[C@@]2(C)CC[C@H]3[C@@H](CC[C@@H]4C[C@](C)(O)CC[C@@H]43)[C@H]12 [Example 137]', 'AUC(0-inf)', 'µg·h/mL', 3.16),
  ('CC[C@@H]1C[C@H](C(=O)Cn2ccnn2)[C@@]2(C)CC[C@H]3[C@@H](CC[C@@H]4C[C@](C)(O)CC[C@@H]43)[C@H]12 [Example 140]', 'AUC(0-inf)', 'µg·h/mL', 4.54),
  ('C[C@@H]1C[C@H](C(=O)Cn2nc(C#N)cc2C#N)[C@@]2(C)CC[C@H]3[C@@H](CC[C@@H]4C[C@](C)(O)CC[C@@H]43)[C@H]12 [Example 135]', 'AUC(0-inf)', 'µg·h/mL', 4.45),
  ('C[C@@]1(O)CC[C@H]2[C@H](CC[C@@H]3[C@@H]2CC[C@@]2(C)[C@H]3[C@H](C3CC3)C[C@@H]2C(=O)Cn2ccnn2)C1 [Example 145]', 'AUC(0-inf)', 'µg·h/mL', 5.27),
  ('C[C@@]1(O)CC[C@H]2[C@H](CC[C@@H]3[C@@H]2CC[C@@]2(C)[C@H]3[C@@H]3C[C@@H]3[C@@H]2C(=O)Cn2ncnn2)C1 [Example 9]', 'AUC(0-inf)', 'µg·h/mL', 0.68),
  ('C[C@@]1(O)CC[C@H]2[C@H](CC[C@@H]3[C@@H]2CC[C@]2(C)C(C(=O)Cn4cc(C#N)cn4)C[C@@H](C4CC4)[C@@H]32)C1 (some centres unmarked) [Example 71]', 'AUC(0-inf)', 'µg·h/mL', 1.28),
  ('CC[C@@H]1C[C@H](C(=O)Cn2ccc(C(F)(F)F)n2)[C@@]2(C)CC[C@H]3[C@@H](CC[C@@H]4C[C@](C)(O)CC[C@@H]43)[C@H]12 [Example 138]', 'AUC(0-inf)', 'µg·h/mL', 0.935),
  ('C[C@@]1(O)CC[C@H]2[C@H](CC[C@@H]3[C@@H]2CC[C@@]2(C)[C@H]3[C@@H]3C[C@@H]3[C@@H]2C(=O)Cn2cc(C(F)(F)F)cn2)C1 [Example 5]', 'AUC(0-inf)', 'µg·h/mL', 3.07),
  ('C[C@@H]1C[C@H](C(=O)Cn2ncnn2)[C@@]2(C)CC[C@H]3[C@@H](CC[C@@H]4C[C@](C)(O)CC[C@@H]43)[C@H]12 [Example 63]', 'AUC(0-inf)', 'µg·h/mL', 0.618);
